Test: Acid-catalyzed hydrolysis of enol ethers in THF/1 M HCl, percent remaining by GC-FID
Assay type: physicochemical
Conditions: THF/1M HCl (80:20 v/v), room temperature, 48 h
ASSAY_READOUT: percent remaining, 48 h (%)
I only need the number, in %, no unit after it.

                                   compound  unit_annotation  experimental_result
0  COC(=O)C(C)(C)OC=C(C)c1ccc(OC)cc1 [Compound 27]                %                  101
1  CCCCCC(CC)OC=C(C)c1ccccc1 (stereo not shown) [(1-(octan-3-yloxy)prop-1-en-2-yl)benzene, reference compound]                %                 92.4
2  CC/C=C\CCOC(=O)C(C)OC=Cc1ccccc1 (racemic) [Compound 39]                %                 95.3
3  CCC(C)OC(=O)C(C)OC=C(C)c1ccc(C)cc1 (racemic) [Compound 46]                %                 97.0
4  CC(=COC(C)(C)CCCC(C)C)c1ccccc1 [reference compound]                %                 85.7
5  CC(OC=Cc1ccccc1)C(=O)OCCc1ccccc1 (racemic) [Compound 40, (±)-phenethyl 2-(styryloxy)propanoate]                %                 95.0

Next compound, please.
Name the recorded percent remaining, 48 h of the item COC(=O)C(C)(C)OC=C(C)c1ccc(C)cc1 [Compound 28] in your answer.
98.5

----------
Assay: Acid-catalyzed hydrolysis of enol ethers in THF/1 M HCl, percent remaining by GC-FID
Assay type: physicochemical
Settings: THF/1M HCl (80:20 v/v), room temperature, 504 h
So basically: is percent remaining, 504 h under 70%? Then class 1. Not under? Then class 0.

>>> df
                                   compound  answer_label
0          COC(=O)C(C)(C)OC=C(C)c1ccc(C)cc1       class 0
1  CCC(C)OC(=O)C(C)OC=C(C)c1ccc(C)cc1 (racemic)       class 0
2  CC(=COCCc1ccccc1)c1ccccc1 [(1-phenethoxyprop-1-en-2-yl)benzene, reference compound]       class 1
3  CC/C=C\CCOC(=O)C(C)OC=Cc1ccc(OC)cc1 (racemic)       class 1
4  CC/C=C\CCOC=Cc1ccc(OC)cc1 [Compound 51, reference compound]       class 1

Is percent remaining, 504 h of CCCCCC(CC)OC(=O)C(C)OC=Cc1ccccc1 (racemic) [Compound 41, (±)-octan-3-yl 2-(styryloxy)propanoate] strictly below 70%?
class 0

Is percent remaining, 504 h of CCCCCC(CC)OC(=O)C(C)OC=C(C)c1ccccc1 (racemic) strictly below 70%?
class 0

----------
Let's look at some compounds and their measured percent remaining, 672 h.
Experiment: Acid-catalyzed hydrolysis of enol ethers in THF/1 M HCl, percent remaining by GC-FID
Assay type: physicochemical
Conditions: THF/1M HCl (80:20 v/v), room temperature, 672 h
I only need the number, in %, no unit after it.

Field: example entries. Status: answers known.
>>> df
                                   compound             assay_readout  unit_annotation  experimental_result
0  CC/C=C\CCOC(=O)C(C)OC=C(C)c1ccc(OC)cc1 (racemic) [Compound 47]  percent remaining, 672 h                %                 40.0
1  CCCCCC(CC)OC(=O)C(C)OC=C(C)c1ccccc1 (racemic) [Compound 44]  percent remaining, 672 h                %                 88.6
2  COC(=O)C(C)(C)OC=C(C)c1ccc(OC)cc1 [Compound 27]  percent remaining, 672 h                %                 84.7
3  CCC(C)OC(=O)C(C)OC=C(C)c1ccc(OC)cc1 (racemic) [Compound 49]  percent remaining, 672 h                %                 56.2
4  COC(=O)C(C)(C)OC=Cc1ccccc1 [Compound 10, methyl 2-methyl-2-(styryloxy)propanoate]  percent remaining, 672 h                %                 64.1
5  CC(=COCCc1ccccc1)c1ccccc1 [(1-phenethoxyprop-1-en-2-yl)benzene, reference compound]  percent remaining, 672 h                %                 43.7
6  CCC(C)OC(=O)C(C)OC=C(C)c1ccc(C)cc1 (racemic) [Compound 46]  percent remaining, 672 h                %                 66.6
7  CC/C=C\CCOC(=O)C(C)OC=Cc1ccc(OC)cc1 (racemic) [Compound 42]  percent remaining, 672 h                %                 35.2

Name the recorded percent remaining, 672 h of the item CC(=COCCc1ccccc1)c1ccc(C)cc1 [reference compound] in your answer.
42.5

Name the recorded percent remaining, 672 h of the item CCCCCC(CC)OC=C(C)c1ccccc1 (centres unmarked) [(1-(octan-3-yloxy)prop-1-en-2-yl)benzene, reference compound] in your answer.
33.6

Name the recorded percent remaining, 672 h of the item CCCCCC(CC)OC=Cc1ccccc1 (centres unmarked) [(2-(octan-3-yloxy)vinyl)benzene, reference compound] in your answer.
0
